Exercise: for every item that follows, state its recorded IC50.
Assay Name: Anti-phytoplankton activity against Skeletonema grethae assessed as reduction in chlorophyll a level measured after 72 hrs by fluorescence based analysis
Assay type: functional, organism-based

[in] Look up IC50 of `CC(=O)NCCc1c[nH]c2cccc(F)c12` and report it.
[out] > 200 µM

[in] Please give measured IC50 of the following entry: `CC(=O)c1nc(C(=O)NCCc2c[nH]c3cc(F)ccc23)cs1`
[out] > 200 µM

[in] Dear colleague, please send me the reported IC50 for `N#Cc1c(-c2ccc(Cl)cc2)[nH]c(C(F)(F)F)c1Br` when you can.
[out] 13.1 µM

[in] For `CC(=O)c1nc(C(=O)NCCc2c[nH]c3ccc(F)cc23)cs1` , write its IC50.
[out] > 200 µM

[in] Query IC50 for CC(=O)N[C@H](C)c1nc(C(=O)NCCc2c[nH]c3ccccc23)cs1 [BACILLAMIDE C]
[out] > 200 µM

[in] Give a short answer stating reported IC50 for `CC(=O)N[C@H](C)c1nc(C(=O)NCCc2c[nH]c3cccc(F)c23)cs1` .
[out] > 200 µM

[in] Please report IC50 for the following compound: `CC(=O)NCCc1c[nH]c2ccccc12`
[out] > 200 µM

[in] Kindly indicate its recorded IC50. Item: `CC(=O)N[C@H](C)c1nc(C(=O)NCCc2c[nH]c3ccc(F)cc23)cs1`
[out] > 200 µM

[in] Name the recorded IC50 of the compound listed here: C[C@@H]1C[C@@H]([C@H](O)CC2CC(=O)NC(=O)C2)C(=O)[C@@H](C)C1 [CYCLOHEXIMIDE]
[out] 0.5 µM

[in] Quickly give me recorded IC50 for CC(=O)c1nc(C(=O)NCCc2c[nH]c3ccccc23)cs1 [BACILLAMIDE A]
[out] > 200 µM

[in] Identify the reported IC50 for the following entry. `CC(=O)N[C@H](C)c1nc(C(=O)NCCc2c[nH]c3cc(F)ccc23)cs1`
[out] > 200 µM

[in] Please report the measured IC50 for `CC(=O)c1nc(C(=O)NCCc2c[nH]c3cccc(F)c23)cs1`
[out] > 200 µM
